# testedOn: NDM-1 (Klebsiella pneumoniae)
# Construct: Li's Laboratory, Sichuan University (collaborator, a gift and not a purchase)
# Sequence (C7C422 29-270, looked up, species assumed): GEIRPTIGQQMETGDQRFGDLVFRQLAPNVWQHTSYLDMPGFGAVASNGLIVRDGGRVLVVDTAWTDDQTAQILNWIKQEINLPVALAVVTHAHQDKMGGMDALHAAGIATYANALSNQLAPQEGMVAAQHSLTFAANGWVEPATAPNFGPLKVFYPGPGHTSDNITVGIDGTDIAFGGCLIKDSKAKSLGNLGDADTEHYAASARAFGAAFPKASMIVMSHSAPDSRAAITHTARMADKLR
# assay: NDM-1 inhibition assay (FC5 fluorogenic substrate)
# Assay type: biochemical
# testParameters: @ 100 μM; mean ± SD (n = 3)
observedProperty: inhibition at 100 µM (%)
Respond with the bare value in %.

Example results:
Need inhibition at 100 µM of Clc1cccc(-c2nnc3n2CCCS3)c1 , thanks.
17

If you can, please state the reported inhibition at 100 µM value of c1ccc(Cc2nnc3n2CCCS3)cc1 .
4

Endpoint output: inhibition at 100 µM of FC(F)(F)c1cccc(-c2nnc3n2CCCS3)c1 . Value?
26

Looking for the measured inhibition at 100 µM of Brc1ccc(-c2nnc3n2CCS3)cc1 , can you help?
28

Which inhibition at 100 µM is reported for this molecule? FC(F)(F)c1ccc(-c2nnc3n2CCCS3)cc1
8

Fill in: inhibition at 100 µM of Ic1cccc(-c2nnc3n2CCCS3)c1 is ___
9

Look at this molecule and give its reported inhibition at 100 µM. Oc1ccccc1-c1nnc2n1CCCS2
26

What measured inhibition at 100 µM goes with c1ccc(-c2nnc3n2CCCS3)cc1 ?
29

More entries:
Fill blank: measured inhibition at 100 µM of the molecule Fc1cccc(-c2nnc3n2CCCS3)c1 is ____.
10

For the molecule shown here, Cc1ccccc1-c1nnc2n1CCCS2 , give the reported inhibition at 100 µM.
32

Which inhibition at 100 µM is listed for Ic1ccc(-c2nnc3n2CCCS3)cc1 ?
1

Bench note: what inhibition at 100 µM did c1csc(-c2nnc3n2CCCS3)c1 [10b] show?
12

* * *

Each entry below lists one item and its recorded inhibition at 100 µM value.
# testedOn: VIM-2 (Escherichia coli)
# Construct: Li's Laboratory, Sichuan University (collaborator, a gift and not a purchase)
# assay: VIM-2 inhibition assay (FC5 fluorogenic substrate)
# Assay type: biochemical
# testParameters: @ 100 μM; mean ± SD (n = 3)
State just the number; it will be interpreted in %.

# returns recorded inhibition at 100 µM (system: VIM-2 (Escherichia coli)) for CC(=O)Nc1ccc(Nc2ccc(-c3nnc4n3CCCS4)cc2)cc1 [5t]
75

Value wanted: inhibition at 100 µM (VIM-2 (Escherichia coli)) of entry O=C(O)c1ccccc1-c1nnc2n1C(=O)CS2 [compound 15]
21

Which inhibition at 100 µM is reported with VIM-2 (Escherichia coli) for this entry: Ic1cccc(-c2nnc3n2CCCS3)c1 [5h] ?
33

Next:
Query the reported inhibition at 100 µM for VIM-2 (Escherichia coli); item: O=C(O)c1ccccc1-c1nnc2n1CCCS2 [compound 14]
26

State its inhibition at 100 µM on VIM-2 (Escherichia coli): Fc1cccc(-c2nnc3n2CCCS3)c1 [5e]
34

Which measured inhibition at 100 µM belongs to Brc1ccccc1-c1nnc2n1CCCS2 [5c] , tested on VIM-2 (Escherichia coli)?
43

* * *

# testedOn: IMP-1 (Serratia marcescens, UniProt P52699)
# Construct: Li's Laboratory, Sichuan University (collaborator, a gift and not a purchase)
# Sequence (P52699 19-246 limits assumed): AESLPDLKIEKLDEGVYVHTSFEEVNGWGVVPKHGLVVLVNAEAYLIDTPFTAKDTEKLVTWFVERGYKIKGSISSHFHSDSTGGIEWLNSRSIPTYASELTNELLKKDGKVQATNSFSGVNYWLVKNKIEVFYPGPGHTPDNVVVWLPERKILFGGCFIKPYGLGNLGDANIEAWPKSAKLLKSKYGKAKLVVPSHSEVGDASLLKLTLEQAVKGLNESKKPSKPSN
# assay: IMP-1 inhibition assay (FC5 fluorogenic substrate)
# Type: biochemical
# testParameters: @ 100 μM; mean ± SD (n = 3)
observedProperty: inhibition at 100 µM
Please report the result as a number followed by the unit.

Fill in the blank: the reported inhibition at 100 µM of c1csc(-c2nnc3n2CCCS3)c1 [10b] is ____.
57%

Find the recorded inhibition at 100 µM belonging to Fc1cccc(-c2nnc3n2CCCS3)c1 and report it.
8%

Looking for the measured inhibition at 100 µM of CC(C)(C)c1ccc(-c2nnc3n2CCCS3)cc1 , can you help?
63%

Name the reported inhibition at 100 µM value associated with the compound Brc1ccccc1-c1nnc2n1CCCS2
15%

Fill blank: measured inhibition at 100 µM of the compound Cc1c(-c2nnc3n2CCCS3)cccc1[N+](=O)[O-] is ____.
10%

// next entry
Record request: inhibition at 100 µM value, item Clc1ccc(-c2nnc3n2CCCS3)cc1
7%

* * *

# testedOn: VIM-2 (Escherichia coli, UniProt Q5U7L7)
# Construct: Li's Laboratory, Sichuan University (collaborator, a gift and not a purchase)
# assay: VIM-2 inhibition assay (FC5 fluorogenic substrate)
# Format: biochemical
# testParameters: @ 10 μM; mean ± SD (n = 3)
observedProperty: inhibition at 10 µM (%)
Field format: number, assumed %, no unit text.

Examples with their reported inhibition at 10 µM follow.
// returns reported inhibition at 10 µM for input Brc1ccc(-c2nnc3n2CCS3)cc1
50

What does the record list as inhibition at 10 µM for FC(F)(F)c1ccc(-c2nnc3n2CCCS3)cc1 ?
43

Look up inhibition at 10 µM: c1ccc(Cc2nnc3n2CCCS3)cc1
6

Name the recorded inhibition at 10 µM for Clc1ccc(-c2nnc3n2CCCS3)cc1 .
58

Name the recorded inhibition at 10 µM for Cc1ccccc1-c1nnc2n1CCCS2 .
34

// lookup inhibition at 10 µM for COc1ccccc1-c1nnc2n1CCCS2
16

New cases:
Quick one: inhibition at 10 µM for CC(=O)Nc1ccc(Nc2ccc(-c3nnc4n3CCCS4)cc2)cc1 ?
40

Please look up its inhibition at 10 µM: Oc1ccccc1-c1nnc2n1CCCS2
35

I am curious: what inhibition at 10 µM value has been reported for c1ccc(-c2nnc3n2CCCS3)cc1 ?
17

Returns the measured inhibition at 10 µM for the input compound. Input: Fc1ccc(-c2nnc3n2CCCS3)cc1
32

If you can, please state the reported inhibition at 10 µM value of c1ccc(-c2nnc3n2CCCS3)nc1 .
26

Requested read-out: inhibition at 10 µM. Entry: Clc1cccc(-c2nnc3n2CCCS3)c1
16

Report inhibition at 10 µM for FC(F)(F)c1cccc(-c2nnc3n2CCCS3)c1 please.
35

Param item = CC(C)(C)c1ccc(-c2nnc3n2CCCS3)cc1 ; retrieve measured inhibition at 10 µM.
22

Please report the recorded inhibition at 10 µM for Fc1cccc(-c2nnc3n2CCCS3)c1 .
15

* * *

# testedOn: VIM-2 (Escherichia coli)
# Construct: Li's Laboratory, Sichuan University (collaborator, a gift and not a purchase)
# assay: VIM-2 inhibition assay (FC5 fluorogenic substrate)
# Assay type: biochemical
# testParameters: @ 100 μM; mean ± SD (n = 3)
observedProperty: inhibition at 100 µM (%)
Reply numerically in %, unit not repeated.

See these solved cases before continuing.
If you can, please state the reported inhibition at 100 µM value of c1ccc(-c2nnc3n2CCCS3)nc1 .
45

# lookup: inhibition at 100 µM of Cc1ccccc1-c1nnc2n1CCCS2
45

New cases:
I am curious: what inhibition at 100 µM value has been reported for Brc1ccc(-c2nnc3n2CCCS3)cc1 ?
86

Requested field: inhibition at 100 µM. Item: Cc1c(-c2nnc3n2CCCS3)cccc1[N+](=O)[O-]
71

Look up inhibition at 100 µM for this compound: Oc1ccccc1-c1nnc2n1CCCS2
57

Give the measured inhibition at 100 µM of Clc1cccc(-c2nnc3n2CCCS3)c1 .
42

Param item = Clc1ccc(-c2nnc3n2CCCS3)cc1 ; retrieve measured inhibition at 100 µM.
84

* * *

Below: a set of entries, each annotated with reported inhibition at 10 µM.
# testedOn: IMP-1 (Serratia marcescens)
# Construct: Li's Laboratory, Sichuan University (collaborator, a gift and not a purchase)
# assay: IMP-1 inhibition assay (FC5 fluorogenic substrate)
# Assay type: biochemical
# testParameters: @ 10 μM; mean ± SD (n = 3)
Please state the figure in %; there is no need to write the unit.

# count of solved cases: 2
Any idea what its inhibition at 10 µM is? The molecule is CC(C)(C)c1ccc(-c2nnc3n2CCCS3)cc1
15

Entry c1coc(-c2nnc3n2CCCS3)c1 [10a] : reported inhibition at 10 µM = ?
6

Then this molecule:
Would you kindly share the measured inhibition at 10 µM for Brc1ccccc1-c1nnc2n1CCCS2 ?
16

* * *

# testedOn: VIM-2 (Escherichia coli, UniProt Q5U7L7)
# Construct: Li's Laboratory, Sichuan University (collaborator, a gift and not a purchase)
# assay: VIM-2 inhibition assay (FC5 fluorogenic substrate)
# Assay type: biochemical
# testParameters: 10 concentrations in threefold dilution, triplicate; read-out: IC50 against VIM-2
pIC50: −log10 of the molar value.
Listed below: pIC50 values for each entry.

pIC50 of CC(=O)Nc1ccc(Nc2ccc(-c3nnc4n3CCCS4)cc2)cc1 on VIM-2 (Escherichia coli, UniProt Q5U7L7)?
< 4.00

---
Record c1ccc(-c2nnc3n2CCCS3)cc1 : what is its pIC50 with VIM-2 (Escherichia coli, UniProt Q5U7L7)?
~3.75

Provide the documented pIC50 with VIM-2 (Escherichia coli, UniProt Q5U7L7) as the system for FC(F)(F)c1cccc(-c2nnc3n2CCCS3)c1
< 4.00

Identify the measured pIC50 of Ic1ccc(-c2nnc3n2CCCS3)cc1 for VIM-2 (Escherichia coli, UniProt Q5U7L7).
< 4.00

Checklist item: pIC50 tested on VIM-2 (Escherichia coli, UniProt Q5U7L7), entry Oc1ccccc1-c1nnc2n1CCCS2 , value?
< 4.00
